Reference source for all entries: paper PMC10155203

method_notes: Study 2: PPI (rabeprazole) interaction clinical study, single oral dose of encorafenib, plasma PK and safety
Type: in vivo, human
measurement_context: human, plasma, oral, 300 mg
observable: AUC(0-inf) (ng·h/mL)
Give your result in ng·h/mL as a bare value.

Returns the measured AUC(0-inf) for the input molecule. Input: `COC(=O)N[C@@H](C)CNc1nccc(-c2cn(C(C)C)nc2-c2cc(Cl)cc(NS(C)(=O)=O)c2F)n1`
14800

###

method_notes: Study 2: PPI (rabeprazole) interaction clinical study, single oral dose of encorafenib, plasma PK and safety
Format: in vivo, human
measurement_context: human, plasma, oral, 100 mg; read-out: t1/2 (converted)
observable: half-life (h)
// note: answer is a bare numeric in h

Look at this compound and give its reported half-life. `COC(=O)N[C@@H](C)CNc1nccc(-c2cn(C(C)C)nc2-c2cc(Cl)cc(NS(C)(=O)=O)c2F)n1`
7.53

###

method_notes: Study 1: food effect clinical study, single oral dose of encorafenib 100 mg, fasted vs high-fat meal, plasma PK and safety
Type: in vivo, human
measurement_context: human, plasma, po, 100 mg, study 1, 100 mg single oral dose, fed, GM (GCV%)
observable: Cmax (ng/mL)
Give the quantity in ng/mL, number only.

Field request: Cmax | item: `COC(=O)N[C@@H](C)CNc1nccc(-c2cn(C(C)C)nc2-c2cc(Cl)cc(NS(C)(=O)=O)c2F)n1`
621

###

method_notes: Study 2: PPI (rabeprazole) interaction clinical study, single oral dose of encorafenib, plasma PK and safety
Format: in vivo, human
measurement_context: human, plasma, oral, 100 mg; read-out: Vz/F
observable: Vd/F (L)
Write the answer as a number in L, unit excluded.

Entry `COC(=O)N[C@@H](C)CNc1nccc(-c2cn(C(C)C)nc2-c2cc(Cl)cc(NS(C)(=O)=O)c2F)n1` : reported Vd/F = ?
247

###

method_notes: Study 1: food effect clinical study, single oral dose of encorafenib 100 mg, fasted vs high-fat meal, plasma PK and safety
Format: in vivo, human
measurement_context: human, plasma, po, 100 mg, study 1, 100 mg single oral dose, fed, arithmetic mean ± SD
observable: half-life (h)
Give the value, in units of h, as a plain number.

Quick one: half-life of `COC(=O)N[C@@H](C)CNc1nccc(-c2cn(C(C)C)nc2-c2cc(Cl)cc(NS(C)(=O)=O)c2F)n1` ?
5.61

###

method_notes: Physicochemical and biopharmaceutical properties obtained in-house (PBPK input, experimental data)
measurement_context: experimental data
observable: logP
// no unit string in output, number only

Which measured logP value corresponds to `COC(=O)N[C@@H](C)CNc1nccc(-c2cn(C(C)C)nc2-c2cc(Cl)cc(NS(C)(=O)=O)c2F)n1` ?
2.59

###

method_notes: Physicochemical and biopharmaceutical properties obtained in-house (PBPK input, experimental data)
measurement_context: at pH 6.8, experimental data; read-out: reference solubility (crystalline)
observable: solubility (µg/mL)
# unit: µg/mL | format: bare number

Find the recorded solubility belonging to `COC(=O)N[C@@H](C)CNc1nccc(-c2cn(C(C)C)nc2-c2cc(Cl)cc(NS(C)(=O)=O)c2F)n1` and report it.
10

###

method_notes: Physicochemical and biopharmaceutical properties obtained in-house (PBPK input, experimental data)
measurement_context: at pH 6.8, experimental data
observable: logD
# answer = number (no unit)

Any idea what its logD is? The compound is COC(=O)N[C@@H](C)CNc1nccc(-c2cn(C(C)C)nc2-c2cc(Cl)cc(NS(C)(=O)=O)c2F)n1 [encorafenib, Encorafenib]
1.8
